Values compiled from patent US20160228506A1.

- methodDescription: Thermostability, temperature of aggregation (ProteoStat Thermal Shift)
- Assay type: physicochemical
- Set-up: key: temperature in °C
- conditionLabel: pH 5.6
valueType: Tagg
Numbers only.

Reported Tagg, molecule SEQID-00100: nutritive polypeptide (protein, listed as Lactobacillus acidophilus) MSEEEIFNKIKDLIADNFEVDKDSITENTNFMNDLDADSIDLVEFILQLEDEFGAEIPDDEAEKIKTVGDAVSYIKSHQG : ____
95
